system.name: VCB protein (Homo sapiens, UniProt P40337)
Class (required): determined from Kd; valid ranges are Low: < 100 nM; Mid: ≥ 100 nM and < 300 nM; High: ≥ 300 nM

- line.notation: "Cc1ncsc1-c1cc2c(cc1F)[C@@H](NC(=O)[C@@H]1C[C@@H](O)CN1C(=O)[C@@H](NC(=O)C1(F)CC1)C(C)(C)C)CCC2"
  class: "High"
- line.notation: "Cc1ncsc1-c1ccc(CNC(=O)[C@@H]2C[C@@H](O)CN2C(=O)[C@@H](NC(=O)C2(C#N)CC2)C(C)(C)C)c(O)c1F"
  class: "Mid"
- line.notation: "COc1cc(CNC(=O)[C@@H]2C[C@@H](O)CN2C(=O)[C@@H](NC(=O)C2(C#N)CC2)C(C)(C)C)ccc1-c1scnc1C"
  class: "Mid"
- line.notation: "Cc1cc(-c2scnc2C)c(C)cc1CNC(=O)[C@@H]1C[C@@H](O)CN1C(=O)[C@@H](NC(=O)C1(C#N)CC1)C(C)(C)C"
  class: "High"
- line.notation: "Cc1cc(-c2scnc2C)ccc1CNC(=O)[C@@H]1C[C@@H](O)CN1C(=O)[C@@H](NC(=O)C1(C#N)CC1)C(C)(C)C"
  class: "Mid"
- line.notation: "Cc1cc(-c2scnc2C)ccc1[C@H](C)NC(=O)[C@@H]1C[C@@H](O)CN1C(=O)[C@@H](NC(=O)C1(F)CC1)C(C)(C)C"
  class: "Low"
- line.notation: "Cc1ncsc1-c1ccc(CNC(=O)[C@@H]2C[C@@H](O)CN2C(=O)[C@@H](NC(=O)C2(F)CC2)C(C)(C)C)cc1F"
  class: "Mid"
- line.notation: "Cc1ncsc1-c1ccc(CNC(=O)[C@@H]2C[C@@H](O)CN2C(=O)[C@@H](NC(=O)C2(C#N)CC2)C(C)(C)C)c(Cl)c1"
  class: "Mid"
- line.notation: "Cc1ncsc1-c1ccc(CNC(=O)[C@@H]2C[C@@H](O)CN2C(=O)[C@@H](NC(=O)C2(C#N)CC2)C(C)(C)C)cc1Cl"
  class: "Mid"
- line.notation: "COc1cc(-c2scnc2C)cc(OC)c1CNC(=O)[C@@H]1C[C@@H](O)CN1C(=O)[C@@H](NC(=O)C1(C#N)CC1)C(C)(C)C"
  class: "High"
- line.notation: "Cc1cc(-c2scnc2C)c(F)cc1[C@H](C)NC(=O)[C@@H]1C[C@@H](O)CN1C(=O)[C@@H](NC(=O)C1(F)CC1)C(C)(C)C"
  class: "Low"
- line.notation: "COc1cc(-c2scnc2C)c(OC)cc1CNC(=O)[C@@H]1C[C@@H](O)CN1C(=O)[C@@H](NC(=O)C1(C#N)CC1)C(C)(C)C"
  class: "High"
- line.notation: "Cc1ncsc1-c1ccc(CNC(=O)[C@@H]2C[C@@H](O)CN2C(=O)[C@@H](NC(=O)C2(C#N)CC2)C(C)(C)C)c(C)c1C"
  class: "High"
- line.notation: "Cc1cc(-c2scnc2C)ccc1CNC(=O)[C@@H]1C[C@@H](O)CN1C(=O)[C@@H](NC(=O)C1(F)CC1)C(C)(C)C"
  class: "Mid"
- line.notation: "Cc1cc(-c2scnc2C)ccc1[C@H](C)NC(=O)[C@@H]1C[C@@H](O)CN1C(=O)[C@@H](NC(=O)C1(C#N)CC1)C(C)(C)C"
  class: "Low"
- line.notation: "Cc1ncsc1-c1ccc2c(c1)CC[C@@H]2NC(=O)[C@@H]1C[C@@H](O)CN1C(=O)[C@@H](NC(=O)C1(C#N)CC1)C(C)(C)C"
  class: "High"
- line.notation: "Cc1ncsc1-c1cc(F)c(CNC(=O)[C@@H]2C[C@@H](O)CN2C(=O)[C@@H](NC(=O)C2(C#N)CC2)C(C)(C)C)c(F)c1"
  class: "High"
- line.notation: "Cc1ncsc1-c1ccc(CNC(=O)[C@@H]2C[C@@H](O)CN2C(=O)[C@@H](NC(=O)C2(C#N)CC2)C(C)(C)C)c2ncccc12"
  class: "High"

---

system.name: human serum albumin (Homo sapiens, UniProt P02768)
method: PPB studies on HSA HPLC column
Type: in vitro ADME
condition.context: CHIRALPAK HSA HPLC column (human serum albumin); experimentally determined percentage of the compound bound to human serum albumin
Checkbox rule: fraction unbound at 0.5 mg/mL lower than 0.1 = satisfied; fraction unbound at 0.5 mg/mL not lower than 0.1 = not satisfied.

- line.notation: "COc1cc(-c2scnc2C)c(F)cc1[C@H](C)NC(=O)[C@@H]1C[C@@H](O)CN1C(=O)[C@@H](NC(=O)C1(F)CC1)C(C)(C)C"
  system.name: "human serum albumin (Homo sapiens, UniProt P02768)"
  class: "not satisfied"
- line.notation: "Cc1ncsc1-c1ccc([C@H](C)NC(=O)[C@@H]2C[C@@H](O)CN2C(=O)[C@@H](NC(=O)C2(F)CC2)C(C)(C)C)cc1F"
  system.name: "human serum albumin (Homo sapiens, UniProt P02768)"
  class: "not satisfied"
- line.notation: "COc1cc(-c2scnc2C)c(OC)cc1CNC(=O)[C@@H]1C[C@@H](O)CN1C(=O)[C@@H](NC(=O)C1(C#N)CC1)C(C)(C)C"
  system.name: "human serum albumin (Homo sapiens, UniProt P02768)"
  class: "not satisfied"
- line.notation: "Cc1ncsc1-c1cc(Cl)c(CNC(=O)[C@@H]2C[C@@H](O)CN2C(=O)[C@@H](NC(=O)C2(C#N)CC2)C(C)(C)C)cc1Cl"
  system.name: "human serum albumin (Homo sapiens, UniProt P02768)"
  class: "satisfied"

---

method: Log D7.4 measurement by chromatographic method
Assay type: physicochemical
condition.context: experimental distribution coefficient at pH 7.4; read-out: e log D7.4

- compound: "COc1cc(-c2scnc2C)c(OC)cc1CNC(=O)[C@@H]1C[C@@H](O)CN1C(=O)[C@@H](NC(=O)C1(C#N)CC1)C(C)(C)C"
  chromatographic logD: 1.9
- compound: "Cc1ncsc1-c1ccc(CNC(=O)[C@@H]2C[C@@H](O)CN2C(=O)[C@@H](NC(=O)C2(C#N)CC2)C(C)(C)C)cc1Cl"
  chromatographic logD: 2.1
- compound: "Cc1ncsc1-c1cc2c(cc1F)[C@@H](NC(=O)[C@@H]1C[C@@H](O)CN1C(=O)[C@@H](NC(=O)C1(F)CC1)C(C)(C)C)CC2"
  chromatographic logD: 2.3
- compound: "Cc1cc(-c2scnc2C)ccc1[C@H](C)NC(=O)[C@@H]1C[C@@H](O)CN1C(=O)[C@@H](NC(=O)C1(F)CC1)C(C)(C)C"
  chromatographic logD: 2.5
- compound: "Cc1ncsc1-c1ccc(CNC(=O)[C@@H]2C[C@@H](O)CN2C(=O)[C@@H](NC(=O)C2(C#N)CC2)C(C)(C)C)c(Cl)c1"
  chromatographic logD: 2.2
- compound: "Cc1ncsc1-c1cc2c(cc1F)[C@@H](NC(=O)[C@@H]1C[C@@H](O)CN1C(=O)[C@@H](NC(=O)C1(F)CC1)C(C)(C)C)CCC2"
  chromatographic logD: 2.6
- compound: "Cc1ncsc1-c1ccc(CNC(=O)[C@@H]2C[C@@H](O)CN2C(=O)[C@@H](NC(=O)C2(C#N)CC2)C(C)(C)C)c(F)c1F"
  chromatographic logD: 2.2
- compound: "COc1c(CNC(=O)[C@@H]2C[C@@H](O)CN2C(=O)[C@@H](NC(=O)C2(C#N)CC2)C(C)(C)C)ccc(-c2scnc2C)c1F"
  chromatographic logD: 2.1
- compound: "COc1cc(-c2scnc2C)c(F)cc1[C@H](C)NC(=O)[C@@H]1C[C@@H](O)CN1C(=O)[C@@H](NC(=O)C1(F)CC1)C(C)(C)C"
  chromatographic logD: 2.5
- compound: "Cc1ncsc1-c1ccc(CNC(=O)[C@@H]2C[C@@H](O)CN2C(=O)[C@@H](NC(=O)C2(F)CC2)C(C)(C)C)cc1F"
  chromatographic logD: 2.1
- compound: "Cc1ncsc1-c1ccc(CNC(=O)[C@@H]2C[C@@H](O)CN2C(=O)[C@@H](NC(=O)C2(C#N)CC2)C(C)(C)C)c(O)c1F"
  chromatographic logD: 1.9
- compound: "Cc1ncsc1-c1ccc(CNC(=O)[C@@H]2C[C@@H](O)CN2C(=O)[C@@H](NC(=O)C2(C#N)CC2)C(C)(C)C)cc1 [Compound 1, reference compound]"
  chromatographic logD: 2.3
- compound: "Cc1cc(-c2scnc2C)c(C)cc1CNC(=O)[C@@H]1C[C@@H](O)CN1C(=O)[C@@H](NC(=O)C1(C#N)CC1)C(C)(C)C"
  chromatographic logD: 2.2
- compound: "Cc1ncsc1-c1ccc([C@H](C)NC(=O)[C@@H]2C[C@@H](O)CN2C(=O)[C@@H](NC(=O)C2(C#N)CC2)C(C)(C)C)cc1F"
  chromatographic logD: 2.2

---

Entries and their fraction unbound at 0.5 mg/mL values follow.
system.name: human serum albumin (Homo sapiens, UniProt P02768)
method: PPB studies on HSA HPLC column
Format: in vitro ADME
condition.context: CHIRALPAK HSA HPLC column (human serum albumin); experimentally determined percentage of the compound bound to human serum albumin

- molecule: "Cc1ncsc1-c1cc2c(cc1F)[C@@H](NC(=O)[C@@H]1C[C@@H](O)CN1C(=O)[C@@H](NC(=O)C1(F)CC1)C(C)(C)C)CCC2 [Compound 37]"
  system.name: "human serum albumin (Homo sapiens, UniProt P02768)"
  fraction unbound at 0.5 mg/mL: 0.08
- molecule: "Cc1cc(-c2scnc2C)ccc1CNC(=O)[C@@H]1C[C@@H](O)CN1C(=O)[C@@H](NC(=O)C1(F)CC1)C(C)(C)C [Compound 26]"
  system.name: "human serum albumin (Homo sapiens, UniProt P02768)"
  fraction unbound at 0.5 mg/mL: 0.11
- molecule: "Cc1ncsc1-c1ccc([C@H](C)NC(=O)[C@@H]2C[C@@H](O)CN2C(=O)[C@@H](NC(=O)C2(C#N)CC2)C(C)(C)C)cc1F [Compound 25]"
  system.name: "human serum albumin (Homo sapiens, UniProt P02768)"
  fraction unbound at 0.5 mg/mL: 0.12
- molecule: "Cc1ncsc1-c1ccc(CNC(=O)[C@@H]2C[C@@H](O)CN2C(=O)[C@@H](NC(=O)C2(C#N)CC2)C(C)(C)C)c(F)c1F [Compound 19]"
  system.name: "human serum albumin (Homo sapiens, UniProt P02768)"
  fraction unbound at 0.5 mg/mL: 0.11
- molecule: "Cc1ncsc1-c1ccc(CNC(=O)[C@@H]2C[C@@H](O)CN2C(=O)[C@@H](NC(=O)C2(F)CC2)C(C)(C)C)cc1 [Compound 38, reference compound]"
  system.name: "human serum albumin (Homo sapiens, UniProt P02768)"
  fraction unbound at 0.5 mg/mL: 0.14
- molecule: "COc1cc(-c2scnc2C)c(F)cc1CNC(=O)[C@@H]1C[C@@H](O)CN1C(=O)[C@@H](NC(=O)C1(F)CC1)C(C)(C)C [Compound 29]"
  system.name: "human serum albumin (Homo sapiens, UniProt P02768)"
  fraction unbound at 0.5 mg/mL: 0.12

meta.source: paper PMC10544018
